# measurement.target: BRDT-BD1 (Homo sapiens, UniProt Q58F21)
# method.summary: BromoKdELECT assay
# Type: binding
# Parameters: the first bromodomain of BRDT (BRDT-BD1); purchased Eurofins DiscoverX (Fremont, CA); host or cells: E. coli host derived from the BL21 strain, T7 phage
# condition: read-out: IC50 against BRDT-BD1
measured.endpoint: pIC50
Please keep in mind that pIC50 is minus log10 of the molar concentration; only the number is needed.

Query: pIC50; subject: CNC(=O)[C@@H](CC1CCN(C(=O)Cc2ccc3[nH]c(=O)cc(C)c3c2)CC1)NC(=O)c1ccc(-c2ccc(C)cc2C)cn1
9.66
